# Target Entity: T1, 4H_APH
# T1 chain: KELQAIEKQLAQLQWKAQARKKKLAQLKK
# Assay Protocol: two-hybrid library CCmax;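 note: natural log of median RNA to DNA barcode read ratio; higher means stronger binding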
Metric: interaction score

I: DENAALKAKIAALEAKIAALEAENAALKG [4H1828-AA]
II: DEIAALEAKNAALKAEIAALEAENAALEG [4H451-AA]
Task item: For the two items I and II , which reports the higher interaction score value? API: response body contains the label of the selected item.
Reply: I

P: DEIAALKAEIAALEAENAALEAKNAALEG [4H535-AA]
Q: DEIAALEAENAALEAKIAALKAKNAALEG [4H175-AA]
Task item: Kindly identify the item with the lower interaction score figure among these two: P and Q API: response body contains the label of the selected item.
Reply: P

Just for reference, paper PMC10397247 is where these values come from.
